experimentDescription: Selectivity index as the ratio of CC50 value to that of EC50 value.
Format: functional
observationType: SI
Respond numerically, and do not add a unit to the figure.

Examples with their reported SI follow.
compound | SI
Cc1cccc2c1OP(=O)(OC[C@H]1O[C@@H](n3cc(/C=C/Br)c(=O)[nH]c3=O)C[C@@H]1OC(=O)[C@@H](N)CC(C)C)OC2 (some centres undefined) | 2
Cc1cc(C)c2c(c1)COP(=O)(OC[C@H]1O[C@@H](n3cc(/C=C/Br)c(=O)[nH]c3=O)C[C@@H]1O)O2 (some centres undefined) | 9.9
Cc1cccc2c1OP(=O)(OC[C@H]1O[C@@H](n3cc(/C=C/Br)c(=O)[nH]c3=O)C[C@@H]1OC(=O)CN)OC2 (some centres undefined) | 2.1

Input: Please give the documented SI of Cc1cccc2c1OP(=O)(OC[C@H]1O[C@@H](n3cc(/C=C/Br)c(=O)[nH]c3=O)C[C@@H]1OC(=O)[C@H](N)Cc1ccccc1)OC2 (some centres undefined)
Output: 1.4

====

experimentDescription: Partition coefficient (logP)
Format: physicochemical
assayContext: octanol/water
The entries below come with measured logP values attached.
Respond numerically, and do not add a unit to the figure.

Examples with their reported logP follow.
compound | logP
Cc1cccc2c1OP(=O)(OC[C@H]1O[C@@H](n3cc(/C=C/Br)c(=O)[nH]c3=O)C[C@@H]1OC(=O)[C@H]1CCCN1)OC2 (some centres not stated) | -0.4
Cc1cccc2c1OP(=O)(OC[C@H]1O[C@@H](n3cc(/C=C/Br)c(=O)[nH]c3=O)C[C@@H]1OC(=O)[C@@H](N)CC(C)C)OC2 (some centres not stated) | 0.4
CC(=O)CCC(=O)O[C@H]1C[C@H](n2cc(/C=C/Br)c(=O)[nH]c2=O)O[C@@H]1COP1(=O)OCc2cccc(C)c2O1 (some centres not stated) | 2.3

Switching to the query record.
Input: Please give the documented logP of Cc1cccc2c1OP(=O)(OC[C@H]1O[C@@H](n3cc(/C=C/Br)c(=O)[nH]c3=O)C[C@@H]1OC(=O)[C@@H](N)Cc1ccccc1)OC2 (some centres not stated)
Output: 0.5

====

The entries below come with measured logP values attached.
experimentDescription: Partition coefficient (logP)
Format: physicochemical
assayContext: octanol/water
Respond numerically, and do not add a unit to the figure.

compound | recordedResult
Cc1cccc2c1OP(=O)(OC[C@H]1O[C@@H](n3cc(/C=C/Br)c(=O)[nH]c3=O)C[C@@H]1OC(=O)CN)OC2 (some centres undefined) | -0.8
Cc1cccc2c1OP(=O)(OC[C@H]1O[C@@H](n3cc(/C=C/Br)c(=O)[nH]c3=O)C[C@@H]1OC(=O)[C@@H]1CCCN1)OC2 (some centres undefined) | -0.4
O=c1[nH]c(=O)n([C@H]2C[C@H](O)[C@@H](CO)O2)cc1/C=C/Br [BRIVUDINE] | 0.33

Input: Please give the documented logP of Cc1cccc2c1OP(=O)(OC[C@H]1O[C@@H](n3cc(/C=C/Br)c(=O)[nH]c3=O)C[C@@H]1OC(=O)[C@@H](N)C(C)C)OC2 (some centres undefined)
Output: -0.1

====

The entries below come with measured logP values attached.
experimentDescription: Partition coefficient (logP)
Assay type: physicochemical
assayContext: octanol/water
Respond numerically, and do not add a unit to the figure.

Examples with their reported logP follow.
molecule | recordedResult
Cc1cc(C)c2c(c1)COP(=O)(OC[C@H]1O[C@@H](n3cc(/C=C/Br)c(=O)[nH]c3=O)C[C@@H]1O)O2 (some centres undefined) | 2.2
CCCCCCC(=O)O[C@H]1C[C@H](n2cc(/C=C/Br)c(=O)[nH]c2=O)O[C@@H]1COP1(=O)OCc2cccc(C)c2O1 (some centres undefined) | 2.6

Input: Please give the documented logP of CCC(C)[C@H](N)C(=O)O[C@H]1C[C@H](n2cc(/C=C/Br)c(=O)[nH]c2=O)O[C@@H]1COP1(=O)OCc2cccc(C)c2O1 (some centres undefined)
Output: -0.02

Input: Please give the documented logP of Cc1cccc2c1OP(=O)(OC[C@H]1O[C@@H](n3cc(/C=C/Br)c(=O)[nH]c3=O)C[C@@H]1OC(=O)[C@H](N)Cc1ccccc1)OC2 (some centres undefined)
Output: 0.5
